Values were extracted from patent US8889704B2.

tgt: PIM-1 (Homo sapiens)
Sequence (P11309 whole entry, species assumed): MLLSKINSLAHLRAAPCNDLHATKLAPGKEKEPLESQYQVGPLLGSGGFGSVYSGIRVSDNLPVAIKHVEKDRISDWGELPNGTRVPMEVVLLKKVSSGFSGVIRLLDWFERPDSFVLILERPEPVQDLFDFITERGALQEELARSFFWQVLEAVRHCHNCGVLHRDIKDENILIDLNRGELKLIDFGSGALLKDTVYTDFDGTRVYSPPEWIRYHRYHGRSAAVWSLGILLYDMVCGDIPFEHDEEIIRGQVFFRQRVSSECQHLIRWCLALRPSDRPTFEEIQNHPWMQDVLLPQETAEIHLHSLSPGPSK
Where a name gives a salt, the structure may show the parent alone.
Threshold 200 pM. IC50 below it: TRUE. IC50 at it or above: FALSE.

See these solved cases before continuing.
{"compound": "CC(C)Oc1cccc2ccc(-c3nnc4ccc([C@H](N5CC[C@](C)(N)C5)C(F)(F)F)cn34)nc12 [Example 92, dihydrochloride]", "class": "FALSE"}
{"compound": "CC(C)(O)COc1cc2nc(-c3nnc4ccc([C@@H](N5CC[C@H](N)C5)C(F)(F)F)cn34)ccc2cc1F [Example 302, dihydrochloride]", "class": "FALSE"}
{"compound": "N[C@H]1CCN([C@H](c2ccc3nnc(-c4ccc5cc(F)cc(OCC6CC6)c5n4)n3c2)C(F)(F)F)C1 [Example 158, hydrochloride]", "class": "TRUE"}
{"compound": "CCOc1cc2nc(-c3nnc4ccc([C@@H](N5CCC(N)(CC)C5)C(F)(F)F)cn34)ccc2cc1F (single isomer, unassigned; diastereomer 2) [Example 253, dihydrochloride]", "class": "FALSE"}
{"compound": "N[C@H]1CCN([C@H](c2ccc3nnc(-c4ccc5cccc(C(F)(F)F)c5n4)n3c2)C(F)(F)F)C1 [Example 161, dihydrochloride]", "class": "FALSE"}

Then there is this compound:
input: Hello, I'm reviewing records and need to know if IC50 of N[C@H]1CCN([C@H](c2ccc3nnc(-c4ccc5cc(F)c(OC6CCOCC6)cc5n4)n3c2)C(F)(F)F)C1 [Example 156, hydrochloride] is below 200 pM. Could you check?
output: TRUE
